# System: CP268
# assay remarks: qHTS profiling for inhibitors of Plasmodium falciparum proliferation (AID 504749); note: nearly all actives have a fitted effect of over 60% in size
# experimental context: P. falciparum in erythrocytes, SYBR Green DNA, 72 h; series mostly up to 12.8 µM
Inconclusive results are not listed. Activity calls are given as the source filed them. Calls come from the whole dose curve; as a rule, active = well fitted inhibition curve with a large enough effect; inconclusive = small, poorly fitted or top-dose-only effect; inactive = flat fitted curve, though single readings scatter.
Would you mind answering with one of these outcomes? active, inactive

Some solved entries appear below for comparison.
> print(dat)
                                   molecule  qualitative.label
1  OCC1OC([S-])[C@H](O)C(O)C1O.[Au+] (stereo partly drawn)           inactive
2  O=C(N/N=C\c1ccc([N+](=O)[O-])o1)c1ccc(O)cc1             active

Check the results log: what was the call for C[C@@H]1Cc2ccccc2N1NC(=O)c1ccc(Cl)c(S(N)=O)c1 (stereo partly drawn) ?
inactive
